# target: Mtb proteasome (Mycobacterium tuberculosis)
# Construct: made in house
# test: biochemical
# Assay type: biochemical
# condition_details: from IC50 curve, Mtb proteasome
Labelling field: enter true (1) if recorded Hill Coefficient is less than 1. Enter false (0) if it equals or exceeds that cut-off.

Use the examples below as a reference point.
- compound: "Cc1c(C(=O)O)c(=O)oc2cc3occ(-c4ccccc4)c3cc12 [Compound 6]"
  class_label: "true (1)"
- compound: "Cc1cc(-c2coc3cc4oc(=O)c(CC(=O)NCC#N)c(C)c4cc23)c(C)o1 [Compound 10]"
  class_label: "false (0)"

Record Cc1c(CCC(=O)NCC#N)c(=O)oc2cc3occ(-c4ccccc4)c3cc12 [Compound 9] : is its Hill Coefficient strictly below 1?
false (0)

Lab note: confirm whether the reported Hill Coefficient for this compound is below 1, equality not counting. compound: Cc1c(CCC(=O)O)c(=O)oc2cc3occ(-c4ccc(Cl)cc4)c3cc12 [Compound 2]
false (0)

Please state whether Hill Coefficient is below 1 for Cc1c(CCC(=O)O)c(=O)oc2cc3occ(-c4ccc(Br)cc4)c3cc12 [Compound 1]
true (1)

---

# target: Mtb proteasome (Mycobacterium tuberculosis, UniProt P9WHT9)
# Sequence (P9WHT9 whole entry, looked up): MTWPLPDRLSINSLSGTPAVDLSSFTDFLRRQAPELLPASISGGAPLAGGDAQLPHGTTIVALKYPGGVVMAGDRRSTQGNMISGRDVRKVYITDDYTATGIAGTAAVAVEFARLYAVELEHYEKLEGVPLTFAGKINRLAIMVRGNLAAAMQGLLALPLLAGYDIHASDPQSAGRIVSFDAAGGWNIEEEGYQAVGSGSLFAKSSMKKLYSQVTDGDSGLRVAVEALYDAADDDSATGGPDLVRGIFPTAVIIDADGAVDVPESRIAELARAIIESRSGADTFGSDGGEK
endpoint_label: IC50
Answer with the number, then the unit.

// solved cases for IC50 follow
- molecule: "Cc1c(CCC(=O)O)c(=O)oc2cc3occ(-c4ccc(Cl)cc4)c3cc12"
  target: "Mtb proteasome (Mycobacterium tuberculosis, UniProt P9WHT9)"
  IC50: "15 µM"
- molecule: "CC(C)C[C@H](NC(=O)[C@H](Cc1ccccc1)NC(=O)c1cnccn1)B(O)O [Bortezomib, reference compound]"
  target: "Mtb proteasome (Mycobacterium tuberculosis, UniProt P9WHT9)"
  IC50: "0.11 µM"
- molecule: "Cc1c(CCC(=O)O)c(=O)oc2cc3occ(-c4ccc(C(=O)O)cc4)c3cc12"
  target: "Mtb proteasome (Mycobacterium tuberculosis, UniProt P9WHT9)"
  IC50: "31 µM"
- molecule: "Cc1c(CCC=O)c(=O)oc2cc3c(cc12)C(c1ccccc1)CO3 (centres unmarked)"
  target: "Mtb proteasome (Mycobacterium tuberculosis, UniProt P9WHT9)"
  IC50: "5.8 µM"
- molecule: "Cc1c(CCC(=O)ON2C(=O)CCC2=O)c(=O)oc2cc3occ(-c4ccco4)c3cc12"
  target: "Mtb proteasome (Mycobacterium tuberculosis, UniProt P9WHT9)"
  IC50: "8.8 µM"

// returns IC50 for `Cc1c(C(=O)O)c(=O)oc2cc3occ(-c4ccccc4)c3cc12` with Mtb proteasome (Mycobacterium tuberculosis, UniProt P9WHT9); value = 2.2 µM

---

// reported RA at 100 µM against Mtb per item
# target: Mtb proteasome (Mycobacterium tuberculosis, UniProt P9WHT9)
# Construct: made in house
# test: biochemical
# Assay type: biochemical

- item_smiles: "Cc1c(CC(=O)ON2C(=O)CCC2=O)c(=O)oc2cc3occ(C4CCCCC4)c3cc12"
  result: "98%"
- item_smiles: "C/C=C/C(=O)Nc1c(C)c2cc3c(-c4ccccc4)coc3cc2oc1=O"
  result: "93%"
- item_smiles: "COc1ccc(-c2coc3cc4oc(=O)c(CC(=O)O)c(C)c4cc23)cc1"
  result: "50%"
- item_smiles: "Cc1coc2cc3oc(=O)c(CCC(=O)ON4C(=O)CCC4=O)c(C)c3cc12"
  result: "97%"
- item_smiles: "COc1cccc(-c2coc3cc4oc(=O)c(CCC(=O)O)c(C)c4cc23)c1"
  result: "100%"
- item_smiles: "Cc1c(CC(=O)NCC#N)c(=O)oc2cc3occ(-c4ccccc4)c3cc12"
  result: "92%"

Lab note: next molecule to report on.
Just so you know, measured RA at 100 µM against Mtb for `Cc1cc(-c2coc3cc4oc(=O)c(CC(=O)N(C)CC#N)c(C)c4cc23)c(C)s1` came out at 88%

---

# target: Mtb proteasome (Mycobacterium tuberculosis, UniProt P9WHT9)
# Construct: made in house
# test: biochemical
# Type: biochemical
# Lookup of reported RA at 100 µM against Mtb keyed by entry
Write the number in % without appending the unit.

Answered examples (2):
- item_smiles: "Cc1c(CC(=O)NCC#N)c(=O)oc2cc3occ(C(C)(C)C)c3cc12"
  RA at 100 µM against Mtb (%): 92
- item_smiles: "Cc1c(CCC(=O)NCC#N)c(=O)oc2cc3occ(-c4ccc(Br)cc4)c3cc12"
  RA at 100 µM against Mtb (%): 82

// RA at 100 µM against Mtb value for `Cc1coc2cc3oc(=O)c(CC(=O)NCC#N)c(C)c3cc12` : 60

`Cc1cc(-c2coc3cc4oc(=O)c(CCC(=O)ON5C(=O)CCC5=O)c(C)c4cc23)c(C)s1` has a reported RA at 100 µM against Mtb of 95

---

# target: Mtb proteasome (Mycobacterium tuberculosis, UniProt P9WHT9)
# Construct: made in house
# test: Determination of Ki and type of inhibition (varied substrate concentration, GraphPad Prism model fit)
# Format: biochemical
endpoint_label: α (mixed inhibition model)
No unit in the answer, please; the number alone is enough.

Consider the worked cases shown below.
- compound: "Cc1c(CCC(=O)ON2C(=O)CCC2=O)c(=O)oc2cc3occ(-c4ccco4)c3cc12"
  α (mixed inhibition model): 6.67
- compound: "CC(C)C[C@H](NC(=O)[C@H](Cc1ccccc1)NC(=O)c1cnccn1)B(O)O [Bortezomib, reference compound]"
  α (mixed inhibition model): 0.85
- compound: "Cc1c(CCC(=O)NCC#N)c(=O)oc2cc3occ(C(C)(C)C)c3cc12"
  α (mixed inhibition model): 0.19

Could you now consider this next compound?
Entry Cc1c(CCC=O)c(=O)oc2cc3c(cc12)C(c1ccccc1)CO3 (stereo not shown) under Mtb proteasome (Mycobacterium tuberculosis, UniProt P9WHT9) had α (mixed inhibition model) of 0.22

---

# target: Mtb proteasome (Mycobacterium tuberculosis)
# Construct: made in house
# test: biochemical
# Type: biochemical
Measured RA at 100 µM against Mtb, listed per entry.
Give just the number in %; leave the unit off.

Study these solved cases before continuing.
- item_smiles: "Cc1c(CCC(=O)O)c(=O)oc2cc3occ(C4CCCCC4)c3cc12"
  number: 71
- item_smiles: "COc1ccc(-c2coc3c(C)c4oc(=O)c(CCC(=O)O)c(C)c4cc23)cc1"
  number: 87
- item_smiles: "Cc1c(Cc2nsc(=O)o2)c(=O)oc2cc3occ(-c4ccccc4)c3cc12"
  number: 65

Let us move to another entry and its RA at 100 µM against Mtb.
The recorded RA at 100 µM against Mtb for `Cc1c(CCC(=O)ON2C(=O)CCC2=O)c(=O)oc2c(C)c3occ(-c4ccccc4)c3cc12` is 100

---

# target: Mtb proteasome (Mycobacterium tuberculosis)
# Construct: made in house
# test: biochemical
# Type: biochemical
endpoint_label: RA at 100 µM against Mtb (%)
Output spec: scalar in %, unitless text.

Take a look at these entries with their results.
- molecule: "Cc1c(CC(=O)N(C)CC#N)c(=O)oc2cc3occ(-c4ccc(Br)cc4)c3cc12 [Compound 52]"
  endpoint_label: "RA at 100 µM against Mtb"
  number: 70
- molecule: "COc1cccc(-c2coc3c(C)c4oc(=O)c(CCC(=O)O)c(C)c4cc23)c1 [Compound 36]"
  endpoint_label: "RA at 100 µM against Mtb"
  number: 87
- molecule: "Cc1cc(-c2coc3cc4oc(=O)c(CC(=O)O)c(C)c4cc23)c(C)o1 [Compound 32]"
  endpoint_label: "RA at 100 µM against Mtb"
  number: 100
- molecule: "Cc1c(CCC(=O)O)c(=O)oc2cc3c(cc12)C(c1ccccc1)CO3 (racemic) [Compound 91]"
  endpoint_label: "RA at 100 µM against Mtb"
  number: 95
- molecule: "C=CC(=O)Nc1c(C)c2cc3c(-c4ccccc4)coc3cc2oc1=O [Compound 86]"
  endpoint_label: "RA at 100 µM against Mtb"
  number: 95
- molecule: "Cc1cc(-c2coc3cc4oc(=O)c(CCC(=O)O)c(C)c4cc23)c(C)s1 [Compound 21]"
  endpoint_label: "RA at 100 µM against Mtb"
  number: 99

Quick note, RA at 100 µM against Mtb for CC=CC(=O)NCc1c(C)c2cc3c(-c4ccccc4)coc3cc2oc1=O [Compound 83] landed at 52

For Cc1c(CCC(=O)O)c(=O)oc2c(C)c3occ(-c4ccccc4)c3cc12 [Compound 35] the molecule record lists RA at 100 µM against Mtb as 100

---

# target: Mtb proteasome (Mycobacterium tuberculosis, UniProt P9WHT9)
# Construct: made in house
# test: Determination of Ki and type of inhibition (varied substrate concentration, GraphPad Prism model fit)
# Type: biochemical
# condition_details: best scoring inhibition model, read-out: Ki
endpoint_label: Ki (µM)
Supply the numeric figure in µM, leaving out any unit text.

- compound: "Cc1c(CCC=O)c(=O)oc2cc3c(cc12)C(c1ccccc1)CO3 (centres unmarked) [Compound 15]"
  Ki / µM: 14.9

Ki for COc1ccc(C[C@H](NC(=O)[C@H](C)NC(=O)CN2CCOCC2)C(=O)N[C@@H](Cc2ccccc2)C(=O)[C@@]2(C)CO2)cc1 [PR-957, reference compound] is 5.2
